In this section we review reported logP values for a set of compounds.
assay: lg P (physical data)
Respond numerically, and do not add a unit to the figure.

Worked examples follow.
Incoming: Query (compound): O=C(Nc1ccc(Cl)cc1)OCCCCCN1CC([N+](=O)[O-])=C2N(Cc3ccc(Cl)nc3)CCN2C1 ; field requested: logP
Outgoing: 2.09

Incoming: Query (compound): COCCNC(=O)OCCCN1CC([N+](=O)[O-])=C2N(Cc3ccc(Cl)nc3)CCN2C1 ; field requested: logP
Outgoing: 1.11

Continuing:
Incoming: Query (compound): O=C(Nc1ccc(S(=O)(=O)C(F)(F)F)cc1)OCCCCN1CC([N+](=O)[O-])=C2N(Cc3ccc(Cl)nc3)CCN2C1 ; field requested: logP
Outgoing: 2.22

Incoming: Query (compound): COC(C)(C)CNC(=O)OCCCCCN1CC([N+](=O)[O-])=C2N(Cc3ccc(Cl)nc3)CCN2C1 ; field requested: logP
Outgoing: 1.56
